From: patent EP2706123A1

- Test system: Nup62
- Run Description: Expression level of marker gene Nup62 in liver of mice exposed for 7 days (microarray)
- Measurement Setup: mouse liver, 7 days exposure, average of 3 - 4 independent repeat experiments; negative value = underexpression (negative inverse of Ratio); dose and route per compound in Table 8
Documented Average Fold Changes of the expression level of marker gene Nup62 across a set of molecules

Take a look at these entries with their results.
{"Molecule": "CC(C)(c1ccc(O)cc1)c1ccc(O)cc1", "Reported Result": "-1,04"}
{"Molecule": "CC(C)CCCCCCCOC(=O)c1ccccc1C(=O)OCCCCCCCC(C)C [NC_DIDP, Diisodecyl phthalate]", "Reported Result": "-1,03"}

Report its Average Fold Changes of the expression level of marker gene Nup62 with Nup62 as the test system: c1ccc2c(c1)cc1ccc3cccc4ccc2c1c34
-1,40

Report its Average Fold Changes of the expression level of marker gene Nup62 with Nup62 as the test system: CC/C(=C(/CC)c1ccc(O)cc1)c1ccc(O)cc1
-1,07

###

- System: Zbtb16
- Run Description: Expression level of marker gene Zbtb16 in liver of mice exposed for 7 days (microarray)
- Measurement Setup: mouse liver, 7 days exposure, average of 3 - 4 independent repeat experiments; negative value = underexpression (negative inverse of Ratio); dose and route per compound in Table 8
Documented Average Fold Changes of the expression level of marker gene Zbtb16 across a set of molecules

{"Molecule": "CC(=O)Nc1ccc2c(c1)Cc1ccccc1-2", "Reported Result": "-2,94"}
{"Molecule": "CCCCC(CC)COC(=O)c1ccccc1C(=O)OCC(CC)CCCC (stereo not drawn) [NGTXC_DEHP, Di(2-ethylhexyl)phthalate]", "Reported Result": "-1,19"}

# context switch: different molecule, same Average Fold Changes of the expression level of marker gene Zbtb16
Annotate the molecule CC(C)(c1ccc(O)cc1)c1ccc(O)cc1 with its measured Average Fold Changes of the expression level of marker gene Zbtb16.
-1,23

###

Documented Average Fold Changes of the expression level of marker gene 9030619P08Rik across a set of molecules
- Test system: 9030619P08Rik
- Run Description: Expression level of marker gene 9030619P08Rik in liver of mice exposed for 7 days (microarray)
- Measurement Setup: mouse liver, 7 days exposure, average of 3 - 4 independent repeat experiments; negative value = underexpression (negative inverse of Ratio); dose and route per compound in Table 8

Annotate the molecule c1ccc2c(c1)cc1ccc3cccc4ccc2c1c34 with its measured Average Fold Changes of the expression level of marker gene 9030619P08Rik.
3,08

Annotate the molecule CC/C(=C(/CC)c1ccc(O)cc1)c1ccc(O)cc1 with its measured Average Fold Changes of the expression level of marker gene 9030619P08Rik.
8,00

Annotate the molecule CCCCC(CC)COC(=O)c1ccccc1C(=O)OCC(CC)CCCC (stereo not drawn) [NGTXC_DEHP, Di(2-ethylhexyl)phthalate] with its measured Average Fold Changes of the expression level of marker gene 9030619P08Rik.
3,11

###

- System: LOC75771
- Run Description: Expression level of marker gene LOC75771 in liver of mice exposed for 7 days (microarray)
- Measurement Setup: mouse liver, 7 days exposure, average of 3 - 4 independent repeat experiments; negative value = underexpression (negative inverse of Ratio); dose and route per compound in Table 8
Documented Average Fold Changes of the expression level of marker gene LOC75771 across a set of compounds

Take a look at these entries with their results.
{"Compound": "CC/C(=C(/CC)c1ccc(O)cc1)c1ccc(O)cc1", "Tested System": "LOC75771", "Reported Result": "-1,06"}
{"Compound": "CC(C)(c1ccc(O)cc1)c1ccc(O)cc1", "Tested System": "LOC75771", "Reported Result": "1,14"}
{"Compound": "c1ccc2c(c1)cc1ccc3cccc4ccc2c1c34", "Tested System": "LOC75771", "Reported Result": "1,94"}

Annotate the compound CCCCC(CC)COC(=O)c1ccccc1C(=O)OCC(CC)CCCC (centres unmarked) [NGTXC_DEHP, Di(2-ethylhexyl)phthalate] with its measured Average Fold Changes of the expression level of marker gene LOC75771.
1,12

Annotate the compound CC(C)CCCCCCCOC(=O)c1ccccc1C(=O)OCCCCCCCC(C)C [NC_DIDP, Diisodecyl phthalate] with its measured Average Fold Changes of the expression level of marker gene LOC75771.
1,26

Annotate the compound N.N.[Cl][Pt][Cl] [GTXC_CPPD, Cisplatin] with its measured Average Fold Changes of the expression level of marker gene LOC75771.
1,98

Annotate the compound CCC1(c2ccccc2)C(=O)NC(=O)NC1=O with its measured Average Fold Changes of the expression level of marker gene LOC75771.
1,17

Annotate the compound CC(=O)Nc1ccc2c(c1)Cc1ccccc1-2 with its measured Average Fold Changes of the expression level of marker gene LOC75771.
1,64

###

Documented Average Fold Changes of the expression level of marker gene Nup62 across a set of molecules
- Tested on: Nup62
- Run Description: Expression level of marker gene Nup62 in liver of mice exposed for 7 days (microarray)
- Measurement Setup: mouse liver, 7 days exposure, average of 3 - 4 independent repeat experiments; negative value = underexpression (negative inverse of Ratio); dose and route per compound in Table 8

Take a look at these entries with their results.
{"Molecule": "CC(=O)Nc1ccc2c(c1)Cc1ccccc1-2", "Reported Result": "-1,51"}
{"Molecule": "CCC1(c2ccccc2)C(=O)NC(=O)NC1=O", "Reported Result": "1,00"}

Annotate the molecule N.N.[Cl][Pt][Cl] [GTXC_CPPD, Cisplatin] with its measured Average Fold Changes of the expression level of marker gene Nup62.
-1,39

Annotate the molecule CCCCC(CC)COC(=O)c1ccccc1C(=O)OCC(CC)CCCC (stereo not shown) [NGTXC_DEHP, Di(2-ethylhexyl)phthalate] with its measured Average Fold Changes of the expression level of marker gene Nup62.
1,03

###

- Test system: Zbtb16
- Run Description: Expression level of marker gene Zbtb16 in liver of mice exposed for 7 days (microarray)
- Measurement Setup: mouse liver, 7 days exposure, average of 3 - 4 independent repeat experiments; negative value = underexpression (negative inverse of Ratio); dose and route per compound in Table 8
Measured Property: Average Fold Changes of the expression level of marker gene Zbtb16

Take a look at these entries with their results.
{"Molecule": "c1ccc2c(c1)cc1ccc3cccc4ccc2c1c34 [GTXC_BaP, Benzo(a)pyrene]", "Reported Result": "-2,08"}
{"Molecule": "N.N.[Cl][Pt][Cl] [GTXC_CPPD, Cisplatin]", "Reported Result": "-3,46"}
{"Molecule": "CC(C)CCCCCCCOC(=O)c1ccccc1C(=O)OCCCCCCCC(C)C [NC_DIDP, Diisodecyl phthalate]", "Reported Result": "-1,37"}
{"Molecule": "CC/C(=C(/CC)c1ccc(O)cc1)c1ccc(O)cc1 [NGTXC_DES, Diethylstillbestrol]", "Reported Result": "-1,15"}

Annotate the molecule CCC1(c2ccccc2)C(=O)NC(=O)NC1=O [NGTXC_PBB, Phenobarbital] with its measured Average Fold Changes of the expression level of marker gene Zbtb16.
-1,59

###

- System: 9030619P08Rik
- Run Description: Expression level of marker gene 9030619P08Rik in liver of mice exposed for 7 days (microarray)
- Measurement Setup: mouse liver, 7 days exposure, average of 3 - 4 independent repeat experiments; negative value = underexpression (negative inverse of Ratio); dose and route per compound in Table 8
Measured Property: Average Fold Changes of the expression level of marker gene 9030619P08Rik

Take a look at these entries with their results.
{"Molecule": "CC(C)(c1ccc(O)cc1)c1ccc(O)cc1 [NC_BPA, Bisphenol A]", "Reported Result": "1,29"}
{"Molecule": "CCC1(c2ccccc2)C(=O)NC(=O)NC1=O [NGTXC_PBB, Phenobarbital]", "Reported Result": "15,09"}
{"Molecule": "CC(=O)Nc1ccc2c(c1)Cc1ccccc1-2 [GTXC_2-AAF, 2-Acetylaminofluorene]", "Reported Result": "1,38"}
{"Molecule": "N.N.[Cl][Pt][Cl] [GTXC_CPPD, Cisplatin]", "Reported Result": "1,70"}

Annotate the molecule CC(C)CCCCCCCOC(=O)c1ccccc1C(=O)OCCCCCCCC(C)C [NC_DIDP, Diisodecyl phthalate] with its measured Average Fold Changes of the expression level of marker gene 9030619P08Rik.
1,19

###

- System: Cyp17a1
- Run Description: Expression level of marker gene Cyp17a1 in liver of mice exposed for 7 days (microarray)
- Measurement Setup: mouse liver, 7 days exposure, average of 3 - 4 independent repeat experiments; negative value = underexpression (negative inverse of Ratio); dose and route per compound in Table 8
Documented Average Fold Changes of the expression level of marker gene Cyp17a1 across a set of compounds

Take a look at these entries with their results.
{"Compound": "CCC1(c2ccccc2)C(=O)NC(=O)NC1=O [NGTXC_PBB, Phenobarbital]", "Reported Result": "2,24"}
{"Compound": "CCOc1ccc(NC(C)=O)cc1 [GTXC_Phe, Phenacetin]", "Reported Result": "1,82"}
{"Compound": "c1ccc2c(c1)cc1ccc3cccc4ccc2c1c34 [GTXC_BaP, Benzo(a)pyrene]", "Reported Result": "1,59"}

# context switch: different compound, same Average Fold Changes of the expression level of marker gene Cyp17a1
Annotate the compound CC(C)(c1ccc(O)cc1)c1ccc(O)cc1 [NC_BPA, Bisphenol A] with its measured Average Fold Changes of the expression level of marker gene Cyp17a1.
-2,45
